test.name: human hepatoma cell viability loss – ATP luminescence, cytotoxicity control for P. falciparum antimalarial project, primary screen (AID 2303);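 further: 0% = DMSO wells and 100% = digitonin-killed cells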
protocol.conditions: HepG2 viability, 24-48 h, at 10 µM, stronger effect = higher value
Quick list: inhibition per entry.
measured.parameter: inhibition (%)

[[record]]
compound = "CCCN(Cc1nnc(-c2ccco2)o1)C(=O)C1CCN(c2ncc(C(F)(F)F)cc2Cl)CC1"
unit_tag = "%"
test_value = 19

[[record]]
compound = "O=C(Nc1ccc2oc(-c3ccc(Cl)cc3Cl)nc2c1)c1ccc([N+](=O)[O-])o1"
unit_tag = "%"
test_value = 39

[[record]]
compound = "CC1(C)N=C(N)N=C(N)N1OCCCCCCOc1ccc(Cl)c2ccccc12"
unit_tag = "%"
test_value = 62

[[record]]
compound = "CCCCC1=CC2C(=O)C(C(=O)OC)=CN=C2C=C1OCc1ccccc1 (stereo not given)"
unit_tag = "%"
test_value = 7

[[record]]
compound = "COc1ccc(-c2csc(NC(=O)CCC(=O)O)n2)cc1OC"
unit_tag = "%"
test_value = 63

[[record]]
compound = "c1ccc(CNc2cc(-c3ccccn3)nc(-c3ccccn3)n2)cc1"
unit_tag = "%"
test_value = 88

[[record]]
compound = "Cc1cc(C(=O)Nc2ccc(-c3ccccc3)cc2)no1"
unit_tag = "%"
test_value = 6

[[record]]
compound = "COc1ccc(Cl)cc1-c1nc(C(=O)NCCN2CCCCC2)c(C(C)C)s1"
unit_tag = "%"
test_value = 14

[[record]]
compound = "CCOc1cccc(C(=O)Nc2ccc(-c3nc4ccccc4[nH]3)cc2)c1"
unit_tag = "%"
test_value = 40

[[record]]
compound = "Cc1cc(NCCC(=O)Nc2ccccc2)nc(NCCc2ccccc2)n1"
unit_tag = "%"
test_value = -8

[[record]]
compound = "CC(C)(C)NCCN(Cc1ccc(-c2ccc(C(F)(F)F)cc2)cc1)C(=O)Cn1c(CCc2cccc(F)c2F)nc(=O)c2ccccc21"
unit_tag = "%"
test_value = 46

[[record]]
compound = "COc1ccc(NCc2cccc(-c3cccc(CNCCc4ccccc4)c3)c2)cc1"
unit_tag = "%"
test_value = 41

[[record]]
compound = "N#Cc1cccc(C(=O)Nc2cccc(-c3cccc(CN4CCNCC4)c3)c2)c1"
unit_tag = "%"
test_value = 37

[[record]]
compound = "O=S(=O)(c1ccccc1C(F)(F)F)C1C[C@H]2CC[C@@H](C1)N2S(=O)(=O)c1ccc(Cl)c(C(F)(F)F)c1 (stereo not given in full)"
unit_tag = "%"
test_value = 4

[[record]]
compound = "Cc1cc(N[C@@H](CC(C)C)C(=O)NC2CCCC2)nc(NCC2CCCCC2)n1"
unit_tag = "%"
test_value = 8

[[record]]
compound = "CCC[C@@H]([C@@H](CC1CCCCC1)C(=O)N[C@H](C(=O)Nc1nccs1)[C@@H](C)OCc1ccccc1)N(O)C=O"
unit_tag = "%"
test_value = 51

[[record]]
compound = "COc1ccc(CNCc2ccc(F)cc2)cc1-c1ccc(S(=O)(=O)NCCN2CCCC2)s1"
unit_tag = "%"
test_value = 61

[[record]]
compound = "Nc1ncc(-c2ccsc2)c2ccc(-c3ccc4cn[nH]c4c3)cc12"
unit_tag = "%"
test_value = 18

[[record]]
compound = "CS(=O)(=O)Nc1cccc(-c2cnc3[nH]cc(-c4cc(N)cc(C(=O)O)c4)c3c2)c1"
unit_tag = "%"
test_value = 40

[[record]]
compound = "Cc1cccc(OC(C)C(=O)Nc2cc(C(F)(F)F)ccc2N2CCOCC2)c1 (stereo not given)"
unit_tag = "%"
test_value = 2

